molecular target: Nuclear factor NF-kappa-B p105 subunit (Homo sapiens, UniProt P19838); assay: Inhibition of GST-fused human NF-kappaB p50 subunit DNA binding activity assessed as shortened diffusion time by fluorescence correlation spectroscopy
Sequence (P19838 1-433 limits assumed): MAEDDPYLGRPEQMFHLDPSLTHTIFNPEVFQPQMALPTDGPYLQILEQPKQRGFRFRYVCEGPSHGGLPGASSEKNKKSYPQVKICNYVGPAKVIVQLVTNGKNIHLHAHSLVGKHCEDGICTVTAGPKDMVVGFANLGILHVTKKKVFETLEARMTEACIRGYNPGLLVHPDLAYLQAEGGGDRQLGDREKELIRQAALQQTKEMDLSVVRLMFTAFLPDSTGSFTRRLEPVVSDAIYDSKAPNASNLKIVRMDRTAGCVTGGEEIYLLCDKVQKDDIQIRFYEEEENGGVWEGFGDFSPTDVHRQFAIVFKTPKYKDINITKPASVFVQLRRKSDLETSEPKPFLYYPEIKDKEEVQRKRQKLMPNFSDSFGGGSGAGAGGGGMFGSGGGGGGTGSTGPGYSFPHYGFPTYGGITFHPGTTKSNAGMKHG
# pIC50 annotations
// pIC50: -log10(molar conc.)

> print(dat)
                          structure.smiles                              assay.system  reported.metric  observed.value
1            Clc1ccc(Nc2nc(Cl)nc(Cl)n2)cc1  Nuclear factor NF-kappa-B p105 subunit (Homo sapiens, UniProt P19838)            pIC50            3.96
2         CC(C)c1ccc(Nc2nc(Cl)nc(Cl)n2)cc1  Nuclear factor NF-kappa-B p105 subunit (Homo sapiens, UniProt P19838)            pIC50            4.13
3             Cc1cccc(Nc2nc(Cl)nc(Cl)n2)c1  Nuclear factor NF-kappa-B p105 subunit (Homo sapiens, UniProt P19838)            pIC50            4.72
4  O=[N+]([O-])c1cccc(Nc2nc(Cl)nc(Cl)n2)c1  Nuclear factor NF-kappa-B p105 subunit (Homo sapiens, UniProt P19838)            pIC50            3.92

Consider now this further molecule.
Ask: Note down pIC50 recorded for `Clc1nc(Cl)nc(Nc2ccccc2)n1`
Reply: 4.54

All figures here come from ChEMBL document CHEMBL1155256.
